Test method notes: AUC (0 to 12 hrs) in patient with solid tumor at 15 mg, po bid by LC-MS/MS analysis
Assay type: ADME, organism-based
Set-up: time < 12 hr, dose 15 mg, route oral
Run conditions: human, in vivo
Metric: AUC at 12 h (ng·h/mL)
Respond numerically; units are ng·h/mL and should not be typed.

Query :: Item under review: CN(C)CCCOc1ccc(-c2ccc3ncc4c(c3c2)n(C2CCOCC2)c(=O)n4C)cn1 . Reported AUC at 12 h?
Result :: 40.4

---

Reported bioavailability values follow for various compounds
Test method notes: Oral bioavailability in dog
Format: ADME, organism-based, Canis lupus familiaris
Run conditions: in vivo

Query smiles	bioavailability
CO[C@H]1C[C@@H](n2c(=O)n(C)c3cnc4ccc(-c5ccc(OCCCN(C)C)nc5)cc4c32)C1	65%

Now turn to the next compound.
Query :: Would you mind telling me what bioavailability value was observed for CN(C)CCCOc1ccc(-c2ccc3ncc4c(c3c2)n(C2CCOCC2)c(=O)n4C)cn1 ?
Result :: 54%

Where do these numbers come from? They come from ChEMBL document CHEMBL4152224.
